# Tested on: MDA-MB-435
# ASSAY: NCI tumour cell line growth inhibition, 48 h
The source made the active and inactive calls. Rule as the data show it: active = GI50 up to about 1.1 µM and inactive = higher.
Exercise: state measured GI50 for each of the molecules provided.

[in] I have this molecule here, `C[N+](C)(CCO)CCN1c2ccccc2Sc2ccccc21` , and I need its recorded GI50.
[out] > 10 µM (inactive)

[in] Moving on to the next molecule: O=C(NCCCCCCNC(=O)n1cc(F)c(=O)[nH]c1=O)NCCCOCCOCCOCCOCCOCCOCCOCCOCCOCCOCCOCCOCCOCCOCCOCCOCCOCCOCCOCCOCCOCCCNC(=O)C(O)C(O)C(O)C(O)CO (stereo not given)
[out] 55.1 µM (inactive)

[in] Moving on to the next molecule: `CN(C)c1nc(N)nc(CCl)n1`
[out] 37.1 µM (inactive)

[in] Moving on to the next molecule: `c1c[nH]c(CN2CCOCC2)n1`
[out] > 100 µM (inactive)

[in] Moving on to the next molecule: `Nc1cccc2cc(Cl)cnc12`
[out] > 100 µM (inactive)

[in] Moving on to the next molecule: CCN(CC)CCCC(C)Nc1ccnc2cc(Cl)ccc12 (stereo not given) [CHLOROQUINE PHOSPHATE]
[out] 16.4 µM (inactive)

[in] Moving on to the next molecule: `Cc1c(-c2ccc(O)c(O)c2)oc(=O)c2c(O)cccc12`
[out] 3.17 µM (inactive)

[in] Moving on to the next molecule: `C/C=C/[C@H](O[Si](C)(C)C(C)(C)C)[C@@H](O)/C=C/C(=O)OCC`
[out] 19.5 µM (inactive)

[in] Moving on to the next molecule: CC(=O)O[C@H]1CCC2[C@@H]3CCC4Nc5oncc5C[C@]4(C)C3CC[C@@]21C (stereo not given in full)
[out] > 10 µM (inactive)

[in] Moving on to the next molecule: O=C1C2SC34c5c2c2ccccc2n5CCC3CCCN14 (stereo not given)
[out] 89.1 µM (inactive)

* * *

# Test system: NCI/ADR-RES
# ASSAY: NCI tumour cell line growth inhibition, 48 h
Activity calls are given as the source filed them. Cut-off read from the data, not from the text of the source: active = GI50 up to about 1.1 µM and inactive = higher.
Respond only with the outcome that fits, drawn from active, inactive

[in] Please share the test call associated with `CNc1cc([N+](=O)[O-])ccc1C(=O)N1CCC[C@H]1CO` .
[out] inactive

[in] Moving on to the next molecule: `C=C1C(=O)O[C@@H]2/C=C(\C)CC/C=C(\C)CC[C@@]12O`
[out] inactive

[in] Moving on to the next molecule: `Cc1ccnc(NS(=O)(=O)c2ccc(N=[N+]=[N-])cc2)n1`
[out] inactive

[in] Moving on to the next molecule: `CC/C(Cl)=N\OC(=O)Nc1ccc(F)c(Cl)c1`
[out] inactive

[in] Moving on to the next molecule: `CSC1=C(SC)C(=O)c2cn(C)c(=O)cc2C1=O`
[out] inactive

[in] Moving on to the next molecule: `CCc1c(O)nc(Nc2nc3ccccc3[nH]2)[nH]c1=O`
[out] inactive

[in] Moving on to the next molecule: CCNC(=O)C(C)C1CCC2(C)C=CC(=O)C(C)=C2C1O (stereo not drawn)
[out] inactive

[in] Moving on to the next molecule: `CC(C)(Oc1ccc(Cl)cc1)C(=O)N(C(=O)N1CCCCC1)c1ccccc1`
[out] inactive

[in] Moving on to the next molecule: CNc1ccc(C(=O)CC(O)CCC(C)C2OC(=O)CC(O)CC(=O)CC(O)CC(O)CC(O)CC(O)CC3(O)CC(O)C(C(=O)NCCN(C)C)C(CC(OC4OC(C)C(O)C(NC(=O)CN5CCN(C)CC5)C4O)\C=C/C=C\C=C/C=C/C=C/C=C\C=C/C2C)O3)cc1 (stereo not drawn)
[out] inactive

[in] Moving on to the next molecule: CCCCc1cc2c(cc1O)CCC1C2CC[C@@]2(C)C1CC[C@@H]2O (stereo partly drawn)
[out] inactive

[in] Moving on to the next molecule: `Clc1ccccc1/C=c1\nc(-c2ccccc2)n2c1nc1ccccc12`
[out] inactive

[in] Moving on to the next molecule: COc1cc2cc(C(=O)N3CC(CCl)c4ccc([N+](C)(C)Cc5ccc([N+](=O)[O-])cc5)cc43)[nH]c2c(OC)c1OC (stereo not drawn)
[out] inactive

[in] Moving on to the next molecule: `CN(C)c1nc(N)nc(CCl)n1`
[out] inactive

[in] Moving on to the next molecule: COC(=O)[C@@H]1C=C[C@H](OC2OC(COC(C)=O)C(OC(C)=O)C(OC(C)=O)C2OC(C)=O)n2c(=O)c3ccccc3c(=O)n21 (stereo partly drawn)
[out] inactive

[in] Moving on to the next molecule: `Brc1ccc(/N=C/C=C(\Nc2ccc(Br)cc2)C23CC4CC(CC(C4)C2)C3)cc1`
[out] inactive

[in] Moving on to the next molecule: `CCCCNC(=S)Nc1nc(C(=O)NNC(=S)Nc2ccccc2)cs1`
[out] inactive

[in] Moving on to the next molecule: `COC(=O)[C@@H](O)[C@]1(C(=O)OC)C2O[C@@H](OC)[C@@H]1CCCCCC[C@H]2O`
[out] inactive

[in] Moving on to the next molecule: CCCCCCC(CCl)c1sc(-c2csc(CCNC(=O)OC(C)(C)C)n2)nc1C(=O)OC (stereo not drawn)
[out] inactive

[in] Moving on to the next molecule: CC(=O)NC1C(OCc2ccccc2)OC(CO)C(O)C1OCC(=O)N1CCCC1C(=O)NC(CCC(=O)NCCCCCNc1c2ccccc2nc2cccc([N+](=O)[O-])c12)C(N)=O (stereo not drawn)
[out] active

[in] Moving on to the next molecule: `COc1ccc(-n2sc3ncc(-c4ccccc4)cc3c2=O)cc1`
[out] inactive

[in] Moving on to the next molecule: `CCOC(=O)Nc1nc(-c2ccccc2)c(C)s1`
[out] inactive

[in] Moving on to the next molecule: `CCCCOCOc1ccccc1P1(=O)COc2ccccc2OC1`
[out] inactive

[in] Moving on to the next molecule: `Nc1nc(-c2ccccc2)c(CC(=O)O)s1`
[out] inactive
